# TARGET OR SYSTEM: tRNA threonylcarbamoyladenosine biosynthesis protein TsaE (Escherichia coli (strain K12))
# ASSAY REMARKS: qHTS Assay for Inhibitors of YjeE
# MEASUREMENT SETUP: purified YjeE enzyme, qHTS inhibition assay
Hit rate of the full screen: of about 71,000 compounds, about 35 (0.05%) were called active. The list is a sample of the results.
MEASURED PARAMETER: outcome

>>> result("CCOc1ccc(C(=O)N(Cc2ccc(N(C)C)cc2)C2CCS(=O)(=O)C2)cc1 (configuration not stated)")
"inactive"
>>> result("CC(C)[C@@H](CC(=O)N[C@@H]1CCNC[C@H]1C(=O)N[C@H](CC(=O)N[C@@H](CCC(=O)O)CC(=O)O)Cc1ccccc1)NC(=O)C[C@H](CO)NC(=O)[C@@H]1CNCC[C@H]1N")
"inactive"
>>> result("CCC/C=C(\\CCC)C(NC(=O)Cc1ccccc1)c1ccc(C(=O)OC)cc1 (configuration not stated)")
"inactive"
>>> result("COc1ccc(N2C(=O)CC(N3CCC(C(N)=O)CC3)C2=O)cc1 (configuration not stated)")
"inactive"

For the molecule O=C(O)c1cccc(S(=O)(=O)NCCO)c1 , give its reported outcome.
inactive

For the molecule COc1ncc2nc(-c3ccc(Cl)cc3)c(=O)n(-c3ccccc3)c2n1 , give its reported outcome.
inactive

For the molecule C=CC(=C)CCC=C(C)C , give its reported outcome.
inactive
